Test: Pharmacokinetic study in rat plasma after oral administration of QJYQ (UHPLC-sMRM)
Format: in vivo, Sprague-Dawley rats
Conditions: male, Sprague-Dawley; rat plasma, oral QJYQ 3.15 g/kg, n = 8, mean ± SD; read-out: MRT (0-∞)
Measured MRT inf, listed per entry for reference.
property_measured: MRT inf (h)

>  <molecule>
O=C(O)c1ccc(O)c(O)c1 [protocatechuic acid]

>  <endpoint_value>
5.32

$$$$
>  <molecule>
COc1c(O)cc(O)c2c(=O)cc(-c3ccccc3)oc12 [wogonin]

>  <endpoint_value>
8.27

$$$$
>  <molecule>
O=C(O)[C@H]1O[C@@H](Oc2cc3oc(-c4ccccc4)cc(=O)c3c(O)c2O)[C@H](O)[C@@H](O)[C@@H]1O [baicalin]

>  <endpoint_value>
8.62

$$$$

* * *

Test: Stability of the working solution (4°C for 1 month)
Format: physicochemical
Conditions: 50 ng/mL
Measured Working solution Accuracy (%), listed per entry for reference.

>  <compound>
CC(C)(O[C@@H]1O[C@H](CO)[C@@H](O)[C@H](O)[C@H]1O)[C@@H]1CC[C@](O)(CO)[C@H]2CC(=O)[C@@](C)(O)[C@@H]2C1 [atractyloside A]

>  <Working solution Accuracy (%)>
88.5

$$$$
>  <compound>
O=C(/C=C/c1ccc(O)c(O)c1)O[C@H]1[C@H](O)C[C@](O)(C(=O)O)C[C@H]1O

>  <Working solution Accuracy (%)>
95.0

$$$$
>  <compound>
COC(=O)C1=CO[C@@H](O[C@@H]2O[C@H](CO)[C@@H](O)[C@H](O)[C@H]2O)[C@H]2[C@@H]1C(=O)C[C@@H]2C

>  <Working solution Accuracy (%)>
89.5

$$$$

* * *

Measured −80°C for 1month Accuracy (%), listed per entry for reference.
Test: Stability of analytes in rat plasma (auto-sampler, freeze-thaw, room temperature, long-term)
Conditions: 1.56 ng/mL, −80°C 1 month

>  <molecule>
O=c1cc(-c2ccc(O)cc2)oc2c([C@@H]3O[C@H](CO)[C@@H](O)[C@H](O)[C@H]3O)c(O)cc(O)c12 [vitexin]

>  <value_units>
%

>  <−80°C for 1month Accuracy (%)>
90.4

$$$$
>  <molecule>
COc1c2c(cc3oc(CO)cc(=O)c13)O[C@H](C(C)(C)O)C2 [cimifugin]

>  <value_units>
%

>  <−80°C for 1month Accuracy (%)>
83.9

$$$$
>  <molecule>
COc1ccc(-c2coc3cc(O[C@@H]4O[C@H](CO)[C@@H](O)[C@H](O)[C@H]4O)ccc3c2=O)cc1 [ononin]

>  <value_units>
%

>  <−80°C for 1month Accuracy (%)>
111.0

$$$$
>  <molecule>
C[C@@H]1O[C@@H](Oc2c(-c3ccc(O)c(O)c3)oc3cc(O)cc(O)c3c2=O)[C@H](O)[C@H](O)[C@H]1O [quercitrin]

>  <value_units>
%

>  <−80°C for 1month Accuracy (%)>
86.7

$$$$

* * *

Assay: Stability of analytes in rat plasma (auto-sampler, freeze-thaw, room temperature, long-term)
Conditions: 12.5 ng/mL, three freeze-thaw cycles
Measured Freeze thaw cycles Accuracy (%), listed per entry for reference.
property_measured: Freeze thaw cycles Accuracy (%)

>  <molecule>
COC(=O)C1=CO[C@@H](O[C@@H]2O[C@H](CO)[C@@H](O)[C@H](O)[C@H]2O)[C@H]2[C@@H]1C(=O)C[C@@H]2C [verbenalin]

>  <endpoint_value>
93.8

$$$$
>  <molecule>
COc1cc(/C=C/C(=O)O)ccc1O [ferulic acid]

>  <endpoint_value>
96.0

$$$$
>  <molecule>
O=C1C[C@@H](c2ccc(O)cc2)Oc2cc(O)cc(O)c21 [naringenin]

>  <endpoint_value>
97.6

$$$$
>  <molecule>
C[C@]1(OC(=O)/C=C/c2ccccc2)C[C@@H](O)[C@]2(O)C=CO[C@@H](O[C@@H]3O[C@H](CO)[C@@H](O)[C@H](O)[C@H]3O)[C@@H]21 [harpagoside]

>  <endpoint_value>
98.1

$$$$
>  <molecule>
C[C@@H]1O[C@@H](Oc2c(-c3ccc(O)c(O)c3)oc3cc(O)cc(O)c3c2=O)[C@H](O)[C@H](O)[C@H]1O [quercitrin]

>  <endpoint_value>
90.0

$$$$
>  <molecule>
C[C@@]12C[C@@]3(O)O[C@@H](O1)[C@]1(COC(=O)c4ccccc4)[C@H]3C[C@@]12O[C@@H]1O[C@H](CO)[C@@H](O)[C@H](O)[C@H]1O [paeoniflorin]

>  <endpoint_value>
97.6

$$$$
>  <molecule>
O=c1c(O[C@@H]2O[C@H](CO)[C@H](O)[C@H](O)[C@H]2O)c(-c2ccc(O)c(O)c2)oc2cc(O)cc(O)c12 [hyperoside]

>  <endpoint_value>
98.4

$$$$
